Origin of values: the pKa sets of Baltruschat and Czodrowski (2020)

- Measurement Context: basic group
Decide by pKa: equal to or exceeding 5 means Fulfilled, less means Not fulfilled.

# Compound, Assigned Label
rows = [
    ("CC[NH+](C)CCOCCN(C)C", "Fulfilled"),
    ("Nc1n[nH]c(N)c1/N=N/c1ccccc1O", "Not fulfilled"),
    ("Nc1ccnc2c1ncn2CCOCP(=O)([O-])O", "Fulfilled"),
    ("O=[N+]([O-])c1ccc(Nc2ccccc2)cc1", "Not fulfilled"),
    ("CC(C)CCSC(=N)c1ccccc1", "Fulfilled"),
    ("OCCCCc1cccnc1", "Fulfilled"),
]

pKa >= 5 for NC1Cc2ccccc2C1 ?
Fulfilled

pKa >= 5 for CSc1nc2ncncc2[nH]1 ?
Not fulfilled

pKa >= 5 for Cc1cnc2c(c1)c(C)c(C)c1cccnc12 ?
Fulfilled

pKa >= 5 for c1ccc(-c2ccn[nH]2)nc1 ?
Not fulfilled

pKa >= 5 for Cc1[nH+]c2cc(N)ccc2n1C ?
Not fulfilled
